# protocol: Solubility (Test F)
# Assay type: physicochemical
# cond: arithmetic mean if run multiple times
readout: solubility (µM)

INSERT INTO results (compound, measured_number) VALUES
  ('COc1cc(F)c(O[C@H]2CC[C@@H](C(=O)O)CC2)cc1C(=O)N[C@@H]1[C@H]2CC[C@H](C2)[C@@H]1C(=O)Nc1ccc(C#N)c(Br)c1', 990),
  ('COc1cc(C#N)c(O[C@H]2CC[C@@](C)(C(=O)O)CC2)cc1C(=O)N[C@H]1C2CCC(CC2)[C@H]1C(=O)NCC1(C)CCC1 (relative stereo)', 700);

[P] COc1cc(F)c(O[C@H]2CC[C@@](C)(C(=O)O)CC2)cc1C(=O)NC1C2CCC(C2)C1C(=O)Nc1ccc(F)c(S(F)(F)(F)(F)F)c1 (single isomer, unassigned)
[Q] COc1cc(F)c(O[C@H]2CC[C@@H](C(=O)O)CC2)cc1C(=O)N[C@@H]1[C@H]2CC[C@H](C2)[C@@H]1C(=O)Nc1cc(C(F)(F)F)ccn1
For the two items P and Q , which reports the higher solubility value? Write down the label attached to your selection.
Q
(Q: 770 µM, P: 460 µM)
